I'd appreciate it if you could supply inhibition at 0.01 µM values for the items below.
- test target: UniProt:O60674
- Sequence (O60674 whole entry): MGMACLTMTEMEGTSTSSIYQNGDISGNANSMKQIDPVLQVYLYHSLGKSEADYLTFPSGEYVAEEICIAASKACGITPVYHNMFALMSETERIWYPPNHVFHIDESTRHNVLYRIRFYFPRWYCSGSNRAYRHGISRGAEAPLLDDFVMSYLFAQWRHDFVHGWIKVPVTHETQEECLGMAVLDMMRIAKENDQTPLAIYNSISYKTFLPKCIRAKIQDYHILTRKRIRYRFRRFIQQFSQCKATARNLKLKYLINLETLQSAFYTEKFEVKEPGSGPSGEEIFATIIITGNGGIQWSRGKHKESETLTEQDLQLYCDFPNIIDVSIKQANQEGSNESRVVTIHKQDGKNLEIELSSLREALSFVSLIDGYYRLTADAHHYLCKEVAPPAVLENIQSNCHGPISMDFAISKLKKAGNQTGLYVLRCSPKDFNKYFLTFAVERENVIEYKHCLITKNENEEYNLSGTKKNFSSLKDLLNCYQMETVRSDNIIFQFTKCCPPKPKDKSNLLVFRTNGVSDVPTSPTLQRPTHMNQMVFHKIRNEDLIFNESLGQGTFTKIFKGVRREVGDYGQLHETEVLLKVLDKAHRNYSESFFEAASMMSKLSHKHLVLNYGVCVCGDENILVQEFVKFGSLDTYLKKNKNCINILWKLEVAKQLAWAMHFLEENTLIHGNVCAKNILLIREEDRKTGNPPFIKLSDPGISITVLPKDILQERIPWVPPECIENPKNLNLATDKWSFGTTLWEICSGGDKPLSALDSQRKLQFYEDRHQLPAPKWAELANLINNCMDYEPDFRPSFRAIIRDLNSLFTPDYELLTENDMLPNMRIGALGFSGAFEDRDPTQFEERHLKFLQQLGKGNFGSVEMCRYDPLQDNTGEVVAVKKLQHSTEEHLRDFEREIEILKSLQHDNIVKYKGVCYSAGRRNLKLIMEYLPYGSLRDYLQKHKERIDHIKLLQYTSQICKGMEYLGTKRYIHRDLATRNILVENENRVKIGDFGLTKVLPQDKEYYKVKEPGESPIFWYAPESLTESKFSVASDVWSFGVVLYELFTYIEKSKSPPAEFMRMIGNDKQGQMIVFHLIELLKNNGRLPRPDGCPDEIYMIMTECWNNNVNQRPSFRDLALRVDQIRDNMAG
- assay protocol: Kinase selectivity, inhibition rate at 10 nM (caliper mobility shift assay)
- Type: biochemical
- test parameters: compound at 10 nM

Task: For the molecule N#Cc1cnc2nc1NCCCCCNCc1cccc(c1)N2 , what inhibition at 0.01 µM is on record?
Output: < 25%

Task: Give the measured inhibition at 0.01 µM of Cc1ccc2cc1-c1nc(ncc1Cl)Nc1cccc(c1)NC/C=C\CN2 .
Output: < 25%

Task: Using the record for Clc1cnc2nc1OCCCCCNCc1cccc(c1)N2 , report its inhibition at 0.01 µM.
Output: < 25%

Task: Given the molecule Clc1cnc2nc1NCCCCCNCc1cccc(c1)N2 , what is its reported inhibition at 0.01 µM?
Output: 25 to 49%
